measurement_target: intestinal alkaline phosphatase (Mus musculus)
assay_text: mouse IAP inhibition by analogs – biochemical, luminescence, set 2, SAR follow-up (AID 588647)
measurement_parameters: purified mouse IAP, luminescent substrate read-out
The source made the active and inactive calls. The rule behind the calls is not given here.
Labels: 1 (active), 0 (inactive)

>>> print(df.to_string())
                                   compound  answer_label
0  O=C(NCc1ccccc1)C1CCCN(S(=O)(=O)c2ccc3[nH]c(=O)oc3c2)C1 (stereo not drawn)             0
1  Cc1ccccc1CNC(=O)CCCNS(=O)(=O)c1ccc2[nH]c(=O)oc2c1             0
2  COc1ccc(NC(=O)CCCNS(=O)(=O)c2ccc3[nH]c(=O)oc3c2)cc1OC             1
3  CC(C)c1ccc(NC(=O)C2CCCN(S(=O)(=O)c3ccc4c(c3)oc(=O)n4C)C2)cc1 (stereo not drawn)             0
4    COc1ccc(C(=O)N/N=C/c2c(F)cccc2Cl)cc1OC             0
5  COc1ccc(OC)c(NC(=O)CCNS(=O)(=O)c2ccc3c(c2)oc(=O)n3C)c1             0
6          O=C(N/N=C/c1ccccc1F)c1ccc(O)cc1O             0
7  O=C(CCNS(=O)(=O)c1ccc2[nH]c(=O)oc2c1)NCc1ccc(C(F)(F)F)cc1             0
